Cited source: the supplement of paper PMC12350171

Kindly state growth AUC normalised to DMSO control for each of the entries shown.
System: Haemophilus parainfluenzae
test details: growth AUC normalised to DMSO control (fraction of control); higher = less growth inhibition, active = hit call of the paper
run parameters: 20 µM
Structures can show the parent of a compound that is named as a salt.
Answers are plain numbers.

C[C@@H]1CC[C@H]2[C@@H](C)C(=O)O[C@@H]3O[C@@]4(C)CC[C@@H]1[C@]32OO4 [Artemisinin] | 0.986
Clc1ccc(Cn2c(CN3CCCC3)nc3ccccc32)cc1 [Clemizole hydrochloride] | 0.982
NS(=O)(=O)Cc1noc2ccccc12 [Zonisamide] | 0.981

// below: growth AUC normalised to DMSO control requested for another compound
Query: Using the record for C/C(=C(\CCOP(=O)(O)O)SC(=O)c1ccccc1)N(C=O)Cc1cnc(C)nc1N [Benfotiamine] , report its growth AUC normalised to DMSO control.
Response: 0.999
